Exercise: for every item that follows, state its recorded Content.
method: Comparative tests for stability of the crystalline form E and other crystalline forms (storage, total impurity and content)
Format: physicochemical
assay-conditions: Freezing −20° C., month 12
# unit: % | format: bare number

**Query** Requested read-out: Content. Entry: C[C@@H](O)[C@H]1C(=O)N2C(C(=O)[O-])=C(S[C@@H]3CN[C@H](C(=O)Nc4cccc(C(=O)O)c4)C3)[C@H](C)[C@H]12.[Na+] [Crystalline form B, ertapenem sodium]
**Result** 98.9

**Query** Requested read-out: Content. Entry: C[C@@H](O)[C@H]1C(=O)N2C(C(=O)[O-])=C(S[C@@H]3CN[C@H](C(=O)Nc4cccc(C(=O)O)c4)C3)[C@H](C)[C@H]12.[Na+] [Crystalline form C, ertapenem sodium]
**Result** 99.2

**Query** Requested read-out: Content. Entry: C[C@@H](O)[C@H]1C(=O)N2C(C(=O)[O-])=C(S[C@@H]3CN[C@H](C(=O)Nc4cccc(C(=O)O)c4)C3)[C@H](C)[C@H]12.[Na+] [Amorphous, ertapenem sodium]
**Result** 98.1

**Query** Requested read-out: Content. Entry: C[C@@H](O)[C@H]1C(=O)N2C(C(=O)[O-])=C(S[C@@H]3CN[C@H](C(=O)Nc4cccc(C(=O)O)c4)C3)[C@H](C)[C@H]12.[Na+] (relative stereo) [Crystalline form E]
**Result** 98.9

**Query** Requested read-out: Content. Entry: C[C@@H](O)[C@H]1C(=O)N2C(C(=O)[O-])=C(S[C@@H]3CN[C@H](C(=O)Nc4cccc(C(=O)O)c4)C3)[C@H](C)[C@H]12.[Na+] [Crystalline form D, ertapenem sodium]
**Result** 98.5

**Query** Requested read-out: Content. Entry: C[C@@H](O)[C@H]1C(=O)N2C(C(=O)[O-])=C(S[C@@H]3CN[C@H](C(=O)Nc4cccc(C(=O)O)c4)C3)[C@H](C)[C@H]12.[Na+] [Crystalline form A, ertapenem sodium]
**Result** 99.1

---

method: Comparative tests for stability of the crystalline form E and other crystalline forms (storage, total impurity and content)
Format: physicochemical
assay-conditions: Freezing −20° C., month 3
Exercise: for every item that follows, state its recorded Content.
# unit: % | format: bare number

**Query** Requested read-out: Content. Entry: C[C@@H](O)[C@H]1C(=O)N2C(C(=O)[O-])=C(S[C@@H]3CN[C@H](C(=O)Nc4cccc(C(=O)O)c4)C3)[C@H](C)[C@H]12.[Na+] (relative stereo) [Crystalline form E]
**Result** 99.0

**Query** Requested read-out: Content. Entry: C[C@@H](O)[C@H]1C(=O)N2C(C(=O)[O-])=C(S[C@@H]3CN[C@H](C(=O)Nc4cccc(C(=O)O)c4)C3)[C@H](C)[C@H]12.[Na+] [Amorphous, ertapenem sodium]
**Result** 98.4

**Query** Requested read-out: Content. Entry: C[C@@H](O)[C@H]1C(=O)N2C(C(=O)[O-])=C(S[C@@H]3CN[C@H](C(=O)Nc4cccc(C(=O)O)c4)C3)[C@H](C)[C@H]12.[Na+] [Crystalline form A, ertapenem sodium]
**Result** 99.2

**Query** Requested read-out: Content. Entry: C[C@@H](O)[C@H]1C(=O)N2C(C(=O)[O-])=C(S[C@@H]3CN[C@H](C(=O)Nc4cccc(C(=O)O)c4)C3)[C@H](C)[C@H]12.[Na+] [Crystalline form B, ertapenem sodium]
**Result** 99.1

**Query** Requested read-out: Content. Entry: C[C@@H](O)[C@H]1C(=O)N2C(C(=O)[O-])=C(S[C@@H]3CN[C@H](C(=O)Nc4cccc(C(=O)O)c4)C3)[C@H](C)[C@H]12.[Na+] [Crystalline form D, ertapenem sodium]
**Result** 98.7

**Query** Requested read-out: Content. Entry: C[C@@H](O)[C@H]1C(=O)N2C(C(=O)[O-])=C(S[C@@H]3CN[C@H](C(=O)Nc4cccc(C(=O)O)c4)C3)[C@H](C)[C@H]12.[Na+] [Crystalline form C, ertapenem sodium]
**Result** 99.2

---

Exercise: for every item that follows, state its recorded Total impurity.
method: Comparative tests for stability of the crystalline form E and other crystalline forms (storage, total impurity and content)
Type: physicochemical
assay-conditions: Refrigerating 6° C., month 3
# unit: % | format: bare number

**Query** Requested read-out: Total impurity. Entry: C[C@@H](O)[C@H]1C(=O)N2C(C(=O)[O-])=C(S[C@@H]3CN[C@H](C(=O)Nc4cccc(C(=O)O)c4)C3)[C@H](C)[C@H]12.[Na+] [Crystalline form B, ertapenem sodium]
**Result** 1.4

**Query** Requested read-out: Total impurity. Entry: C[C@@H](O)[C@H]1C(=O)N2C(C(=O)[O-])=C(S[C@@H]3CN[C@H](C(=O)Nc4cccc(C(=O)O)c4)C3)[C@H](C)[C@H]12.[Na+] [Amorphous, ertapenem sodium]
**Result** 2.1

**Query** Requested read-out: Total impurity. Entry: C[C@@H](O)[C@H]1C(=O)N2C(C(=O)[O-])=C(S[C@@H]3CN[C@H](C(=O)Nc4cccc(C(=O)O)c4)C3)[C@H](C)[C@H]12.[Na+] [Crystalline form D, ertapenem sodium]
**Result** 1.9

**Query** Requested read-out: Total impurity. Entry: C[C@@H](O)[C@H]1C(=O)N2C(C(=O)[O-])=C(S[C@@H]3CN[C@H](C(=O)Nc4cccc(C(=O)O)c4)C3)[C@H](C)[C@H]12.[Na+] [Crystalline form C, ertapenem sodium]
**Result** 1.1

**Query** Requested read-out: Total impurity. Entry: C[C@@H](O)[C@H]1C(=O)N2C(C(=O)[O-])=C(S[C@@H]3CN[C@H](C(=O)Nc4cccc(C(=O)O)c4)C3)[C@H](C)[C@H]12.[Na+] (relative stereo) [Crystalline form E]
**Result** 1.3

**Query** Requested read-out: Total impurity. Entry: C[C@@H](O)[C@H]1C(=O)N2C(C(=O)[O-])=C(S[C@@H]3CN[C@H](C(=O)Nc4cccc(C(=O)O)c4)C3)[C@H](C)[C@H]12.[Na+] [Crystalline form A, ertapenem sodium]
**Result** 1.2

---

Exercise: for every item that follows, state its recorded Total impurity.
method: Comparative tests for stability of the crystalline form E and other crystalline forms (storage, total impurity and content)
Assay type: physicochemical
assay-conditions: Refrigerating 6° C., month 12
# unit: % | format: bare number

**Query** Requested read-out: Total impurity. Entry: C[C@@H](O)[C@H]1C(=O)N2C(C(=O)[O-])=C(S[C@@H]3CN[C@H](C(=O)Nc4cccc(C(=O)O)c4)C3)[C@H](C)[C@H]12.[Na+] [Crystalline form B, ertapenem sodium]
**Result** 3.3

**Query** Requested read-out: Total impurity. Entry: C[C@@H](O)[C@H]1C(=O)N2C(C(=O)[O-])=C(S[C@@H]3CN[C@H](C(=O)Nc4cccc(C(=O)O)c4)C3)[C@H](C)[C@H]12.[Na+] [Crystalline form C, ertapenem sodium]
**Result** 3.0

**Query** Requested read-out: Total impurity. Entry: C[C@@H](O)[C@H]1C(=O)N2C(C(=O)[O-])=C(S[C@@H]3CN[C@H](C(=O)Nc4cccc(C(=O)O)c4)C3)[C@H](C)[C@H]12.[Na+] [Crystalline form D, ertapenem sodium]
**Result** 6.5

**Query** Requested read-out: Total impurity. Entry: C[C@@H](O)[C@H]1C(=O)N2C(C(=O)[O-])=C(S[C@@H]3CN[C@H](C(=O)Nc4cccc(C(=O)O)c4)C3)[C@H](C)[C@H]12.[Na+] (relative stereo) [Crystalline form E]
**Result** 3.2

**Query** Requested read-out: Total impurity. Entry: C[C@@H](O)[C@H]1C(=O)N2C(C(=O)[O-])=C(S[C@@H]3CN[C@H](C(=O)Nc4cccc(C(=O)O)c4)C3)[C@H](C)[C@H]12.[Na+] [Amorphous, ertapenem sodium]
**Result** 9.3

**Query** Requested read-out: Total impurity. Entry: C[C@@H](O)[C@H]1C(=O)N2C(C(=O)[O-])=C(S[C@@H]3CN[C@H](C(=O)Nc4cccc(C(=O)O)c4)C3)[C@H](C)[C@H]12.[Na+] [Crystalline form A, ertapenem sodium]
**Result** 3.0

---

Exercise: for every item that follows, state its recorded Content.
method: Comparative tests for stability of the crystalline form E and other crystalline forms (storage, total impurity and content)
Type: physicochemical
assay-conditions: Refrigerating 6° C., month 6

**Query** Requested read-out: Content. Entry: C[C@@H](O)[C@H]1C(=O)N2C(C(=O)[O-])=C(S[C@@H]3CN[C@H](C(=O)Nc4cccc(C(=O)O)c4)C3)[C@H](C)[C@H]12.[Na+] [Crystalline form C, ertapenem sodium]
**Result** 98.2%

**Query** Requested read-out: Content. Entry: C[C@@H](O)[C@H]1C(=O)N2C(C(=O)[O-])=C(S[C@@H]3CN[C@H](C(=O)Nc4cccc(C(=O)O)c4)C3)[C@H](C)[C@H]12.[Na+] [Crystalline form B, ertapenem sodium]
**Result** 98.0%

**Query** Requested read-out: Content. Entry: C[C@@H](O)[C@H]1C(=O)N2C(C(=O)[O-])=C(S[C@@H]3CN[C@H](C(=O)Nc4cccc(C(=O)O)c4)C3)[C@H](C)[C@H]12.[Na+] [Amorphous, ertapenem sodium]
**Result** 94.5%

**Query** Requested read-out: Content. Entry: C[C@@H](O)[C@H]1C(=O)N2C(C(=O)[O-])=C(S[C@@H]3CN[C@H](C(=O)Nc4cccc(C(=O)O)c4)C3)[C@H](C)[C@H]12.[Na+] [Crystalline form D, ertapenem sodium]
**Result** 96.8%

**Query** Requested read-out: Content. Entry: C[C@@H](O)[C@H]1C(=O)N2C(C(=O)[O-])=C(S[C@@H]3CN[C@H](C(=O)Nc4cccc(C(=O)O)c4)C3)[C@H](C)[C@H]12.[Na+] (relative stereo) [Crystalline form E]
**Result** 98.1%

**Query** Requested read-out: Content. Entry: C[C@@H](O)[C@H]1C(=O)N2C(C(=O)[O-])=C(S[C@@H]3CN[C@H](C(=O)Nc4cccc(C(=O)O)c4)C3)[C@H](C)[C@H]12.[Na+] [Crystalline form A, ertapenem sodium]
**Result** 98.1%
